The entries below come with measured Efficacy (%) values attached.
- studyTarget: UniProt:Q96RI1
- Sequence (Q96RI1 whole entry, the tested form may be a part): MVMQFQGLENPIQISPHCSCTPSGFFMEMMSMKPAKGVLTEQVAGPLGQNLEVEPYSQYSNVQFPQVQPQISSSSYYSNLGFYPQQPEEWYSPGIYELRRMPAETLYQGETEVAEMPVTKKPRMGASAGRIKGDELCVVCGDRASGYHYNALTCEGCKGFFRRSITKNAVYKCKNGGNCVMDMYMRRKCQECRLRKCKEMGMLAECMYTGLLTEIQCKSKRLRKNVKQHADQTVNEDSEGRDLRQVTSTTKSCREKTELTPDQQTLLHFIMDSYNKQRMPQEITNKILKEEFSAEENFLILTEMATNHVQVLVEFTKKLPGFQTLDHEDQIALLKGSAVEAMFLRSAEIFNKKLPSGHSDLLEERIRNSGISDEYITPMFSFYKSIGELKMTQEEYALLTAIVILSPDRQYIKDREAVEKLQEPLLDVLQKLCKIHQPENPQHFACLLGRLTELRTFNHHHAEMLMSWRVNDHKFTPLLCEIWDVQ
- assayOverview: Human FXR (NR1H4) Assay (Gal4 promoter driven luciferase reporter, Indigo Bioscience kit IB00601)
- Assay type: cell-based
- experimentalConditions: efficacy normalized to CDCA set as 100%
# number only, unit % dropped from output

CC[C@H]1[C@@H](O)[C@@H]2[C@H](CC[C@]3(C)[C@@H]([C@H](C)CNS(=O)(=O)C(C)(C)C)CC[C@@H]23)[C@@]2(C)CC[C@@H](O)C[C@@H]12 [Example 143]: 6

[in] If you can, please state the reported Efficacy (%) value of CC[C@H]1[C@@H](O)[C@@H]2[C@H](CC[C@]3(C)[C@@H]([C@H](C)CCNC(=O)NS(=O)(=O)c4cc(F)cc(OC)c4)CC[C@@H]23)[C@@]2(C)CC[C@@H](O)C[C@@H]12 [Example 103] .
[out] 328

[in] Same question, CC[C@H]1[C@@H](O)[C@@H]2[C@H](CC[C@]3(C)[C@@H]([C@H](C)CCNC(=O)NS(=O)(=O)N4CCOCC4)CC[C@@H]23)[C@@]2(C)CC[C@@H](O)C[C@@H]12 [Example 37] this time
[out] 254

[in] Same question, CC[C@H]1[C@@H](O)[C@@H]2[C@H](CC[C@]3(C)[C@@H]([C@H](C)CCNC(=O)NS(=O)(=O)c4cnn(CC)c4)CC[C@@H]23)[C@@]2(C)CC[C@@H](O)C[C@@H]12 [Example 109] this time
[out] 219

[in] Same question, CC[C@H]1[C@@H](O)[C@@H]2[C@H](CC[C@]3(C)[C@@H]([C@H](C)CCNC(=O)NS(=O)(=O)c4cccc(N(C)C)c4)CC[C@@H]23)[C@@]2(C)CC[C@@H](O)C[C@@H]12 [Example 112] this time
[out] 287

---

- studyTarget: UniProt:Q96RI1
- assayOverview: Human FXR (NR1H4) Assay (Gal4 promoter driven luciferase reporter, Indigo Bioscience kit IB00601)
- experimentalConditions: potency ranges
The entries below come with measured EC50 values attached.

CC[C@H]1[C@@H](O)[C@@H]2[C@H](CC[C@]3(C)[C@@H]([C@H](C)CCNC(=O)NS(=O)(=O)N4C[C@@H](C)O[C@H](C)C4)CC[C@@H]23)[C@@]2(C)CC[C@@H](O)C[C@@H]12: < 100 nM
CC[C@H]1[C@@H](O)[C@@H]2[C@H](CC[C@]3(C)[C@@H]([C@H](C)CCNC(=O)NS(=O)(=O)c4ccc(F)cc4)CC[C@@H]23)[C@@]2(C)CC[C@@H](O)C[C@@H]12: < 100 nM

[in] API: value(readout=EC50, system=UniProt:Q96RI1) for record `CC[C@H]1[C@@H](O)[C@@H]2[C@H](CC[C@]3(C)[C@@H]([C@H](C)CCCNC(=O)NS(=O)(=O)c4ccc(C(C)(C)C)cc4)CC[C@@H]23)[C@@]2(C)CC[C@@H](O)C[C@@H]12`
[out] < 100 nM

[in] Same question, `CC[C@H]1[C@@H](O)[C@@H]2[C@H](CC[C@]3(C)[C@@H]([C@H](C)CCNC(=O)N(C)S(=O)(=O)c4ccccc4)CC[C@@H]23)[C@@]2(C)CC[C@@H](O)C[C@@H]12` this time
[out] 100 to 1000 nM
